Target: UniProtKB P32238
Sequence (P32238 whole entry): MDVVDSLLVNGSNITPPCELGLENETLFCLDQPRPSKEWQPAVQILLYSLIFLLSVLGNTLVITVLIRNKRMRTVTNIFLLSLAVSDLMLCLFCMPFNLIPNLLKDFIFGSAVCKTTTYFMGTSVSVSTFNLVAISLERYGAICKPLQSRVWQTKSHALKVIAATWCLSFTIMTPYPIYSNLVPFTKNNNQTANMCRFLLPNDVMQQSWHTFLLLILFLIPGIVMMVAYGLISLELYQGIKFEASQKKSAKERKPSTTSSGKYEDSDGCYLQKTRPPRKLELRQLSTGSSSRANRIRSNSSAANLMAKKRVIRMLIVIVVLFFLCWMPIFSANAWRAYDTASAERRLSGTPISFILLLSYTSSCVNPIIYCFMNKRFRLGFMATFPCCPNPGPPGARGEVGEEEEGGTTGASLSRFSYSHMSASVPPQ
REPORTED_PROPERTY: pIC50
One number for each entry, as −log10 of the molar value.

**Q:** Fill blank: measured pIC50 of the compound CCCCCN(CCCCC)C(=O)C(Cc1c[nH]c2ccccc12)NC(=O)c1ccc(Cl)c(Cl)c1 (stereo unspecified) is ____.
**A:** 6.72

The measurements presented in this section are drawn from ChEMBL document CHEMBL1153648.
